- Test system: MRC-5 cells
- ASSAY_INFO: FBS-induced MRC-5 proliferation, alamarBlue assay
- Format: cell-based, human
- RUN_PARAMETERS: Table S1 (Figure 2B); 15 µM, 48 h with FBS
RECORDED_METRIC: MRC-5 proliferation [% of control]

MOLECULE: CC(C)c1ccc(NC(=O)Cn2cnc3c2c(=O)n(C)c(=O)n3C)cc1 [HC-030031, reference compound]
TEST_TARGET: MRC-5 cells
EXPERIMENTAL_VALUE: 90 % of control
//
MOLECULE: CC(C)CN1C(=O)/C(=C/C(=O)O)c2cccc(F)c21 [ASP 7663, reference compound]
TEST_TARGET: MRC-5 cells
EXPERIMENTAL_VALUE: 92 % of control
//
MOLECULE: CCCCOc1nc2c(c(=O)n(C)c(=O)n2C)n1CCCC(=O)Nc1cc(C(C)(C)C)ccc1O [Compound 145]
TEST_TARGET: MRC-5 cells
EXPERIMENTAL_VALUE: 74 % of control
//
MOLECULE: CC(C)Cn1c(=O)n(C)c(=O)c2[nH]cnc21 [IBMX, reference compound]
TEST_TARGET: MRC-5 cells
EXPERIMENTAL_VALUE: 100 % of control
//
MOLECULE: Cn1c(=O)c2c(nc(NCc3ccco3)n2CCCC(=O)NN=Cc2ccc(O)cc2O)n(C)c1=O [Compound 832]
TEST_TARGET: MRC-5 cells
EXPERIMENTAL_VALUE: 82 % of control
//
MOLECULE: COc1nc2c(c(=O)n(C)c(=O)n2C)n1CC(=O)Nc1ccc(C(C)(C)C)cc1 [Compound 869]
TEST_TARGET: MRC-5 cells
EXPERIMENTAL_VALUE: 88 % of control
